# ASSAY TARGET: rat Mdr1a (Rattus norvegicus)
# Sequence (Q6PSM0 1-1272): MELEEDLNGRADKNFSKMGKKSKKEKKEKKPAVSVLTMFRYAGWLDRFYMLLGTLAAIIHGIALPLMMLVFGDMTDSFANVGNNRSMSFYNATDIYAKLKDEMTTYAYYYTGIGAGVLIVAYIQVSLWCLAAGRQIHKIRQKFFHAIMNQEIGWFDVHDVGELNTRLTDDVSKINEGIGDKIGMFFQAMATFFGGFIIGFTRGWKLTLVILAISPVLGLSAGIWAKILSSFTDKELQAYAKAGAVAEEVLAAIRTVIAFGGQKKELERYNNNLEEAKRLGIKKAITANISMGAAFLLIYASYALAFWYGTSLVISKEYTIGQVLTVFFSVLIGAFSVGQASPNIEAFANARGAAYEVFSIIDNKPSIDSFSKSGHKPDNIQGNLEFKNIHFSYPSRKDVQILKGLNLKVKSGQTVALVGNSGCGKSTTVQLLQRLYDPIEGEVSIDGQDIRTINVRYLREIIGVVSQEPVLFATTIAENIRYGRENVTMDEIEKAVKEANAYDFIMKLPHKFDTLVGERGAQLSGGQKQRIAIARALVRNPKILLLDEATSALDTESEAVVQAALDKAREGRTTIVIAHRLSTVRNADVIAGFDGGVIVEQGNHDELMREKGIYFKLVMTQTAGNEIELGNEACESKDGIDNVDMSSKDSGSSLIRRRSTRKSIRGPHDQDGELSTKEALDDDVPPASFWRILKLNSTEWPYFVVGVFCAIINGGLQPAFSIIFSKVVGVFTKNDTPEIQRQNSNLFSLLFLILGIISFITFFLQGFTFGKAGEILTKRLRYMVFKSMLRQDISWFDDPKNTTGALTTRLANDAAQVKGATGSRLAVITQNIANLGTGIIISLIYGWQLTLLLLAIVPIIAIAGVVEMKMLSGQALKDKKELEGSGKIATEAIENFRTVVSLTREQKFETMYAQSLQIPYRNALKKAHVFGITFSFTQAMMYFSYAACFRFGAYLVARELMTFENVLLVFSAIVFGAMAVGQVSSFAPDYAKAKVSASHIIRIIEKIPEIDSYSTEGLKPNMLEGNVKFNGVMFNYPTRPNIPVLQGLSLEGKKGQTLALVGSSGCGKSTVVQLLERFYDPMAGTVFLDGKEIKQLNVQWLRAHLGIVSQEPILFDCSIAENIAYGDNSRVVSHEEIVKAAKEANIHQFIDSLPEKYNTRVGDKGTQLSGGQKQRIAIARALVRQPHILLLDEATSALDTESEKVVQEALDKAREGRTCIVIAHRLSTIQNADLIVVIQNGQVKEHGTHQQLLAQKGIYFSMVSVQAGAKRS
# EXPERIMENT DESCRIPTION: Bidirectional transport assay, efflux ratio in Abcb1KO-MDCKII rMDR1 cells
# CONDITION SET: rat, pH 7.4

# MOLECULE, ASSAY TARGET, efflux ratio at 120 min, 1 µM
rows = [
    ("CC(C)(C)NC(=O)[C@@H]1CN(Cc2cccnc2)CCN1C[C@@H](O)C[C@@H](Cc1ccccc1)C(=O)N[C@H]1c2ccccc2C[C@H]1O [Indinavir]", "rat Mdr1a (Rattus norvegicus)", 10.9),
    ("COc1ccc(CCN2CCC(Nc3nc4ccccc4n3Cc3ccc(F)cc3)CC2)cc1 [Astemizole]", "rat Mdr1a (Rattus norvegicus)", 3.27),
    ("Cc1ccc(-c2ncc(Cl)cc2-c2ccc(S(C)(=O)=O)cc2)cn1 [Etoricoxib]", "rat Mdr1a (Rattus norvegicus)", 2.01),
    ("COc1cc(Cc2cnc(N)nc2N)cc(OC)c1OC [Trimethoprim]", "rat Mdr1a (Rattus norvegicus)", 13.2),
]

====

# EXPERIMENT DESCRIPTION: Bidirectional transport assay, efflux ratio in Abcb1KO-MDCKII-Mock control cells
# CONDITION SET: dog, MDCK, pH 7.4
Lab note: class by efflux ratio at 120 min, 1 µM, see lower range = under 0.7, middle range = from 0.7 up to 0.9, upper range = 0.9 and over

# MOLECULE, CLASS NAME
measured = [
    ("CCCc1nc2c(C)cc(-c3nc4ccccc4n3C)cc2n1Cc1ccc(-c2ccccc2C(=O)O)cc1", "lower range"),
    ("COc1ccc2c(c1)[C@]13CCCC[C@@H]1[C@H](C2)N(C)CC3", "upper range"),
    ("CNS(=O)(=O)Cc1ccc2[nH]cc(CCN(C)C)c2c1", "upper range"),
    ("CC(=O)CC(c1ccccc1)c1c(O)c2ccccc2oc1=O (centres unmarked)", "lower range"),
    ("CC[C@]1(O)C[C@@H]2CN(CCc3c([nH]c4ccccc34)[C@@](C(=O)OC)(c3cc4c(cc3OC)N(C)[C@H]3[C@@](O)(C(=O)OC)[C@H](OC(C)=O)[C@]5(CC)C=CCN6CC[C@]43[C@@H]65)C2)C1", "upper range"),
    ("C[C@]12C=CC(=O)C=C1CC[C@@H]1[C@@H]2C(=O)C[C@@]2(C)[C@H]1CC[C@]2(O)C(=O)CO", "middle range"),
    ("CN(C)CCC(c1ccccc1)c1ccccn1 (centres unmarked)", "middle range"),
    ("O=C1c2c(O)ccc(O)c2C(=O)c2c(NCCNCCO)ccc(NCCNCCO)c21", "upper range"),
    ("Cn1c(=O)c2c(ncn2C)n(C)c1=O", "middle range"),
    ("O=c1[nH]c2ccccc2n1CCCN1CCC(n2c(=O)[nH]c3cc(Cl)ccc32)CC1", "middle range"),
    ("CCNc1nc(Cl)nc(NC(C)C)n1", "lower range"),
    ("COc1cc2ncnc(Nc3ccc(F)c(Cl)c3)c2cc1OCCCN1CCOCC1", "upper range"),
]

====

The following molecules are listed with their measured efflux ratio at 120 min, 1 µM values.
# EXPERIMENT DESCRIPTION: in vitro
# CONDITION SET: dog, MDCK, pH 7.4
# Protocol: Eluent A consisted of 0.1% formic acid in water, eluent B consisted of 0.1% formic acid in acetonitrile. Then, 10 µL samples were injected into the HPLC-MS/MS system. Mass spectrometric detection was performed in SRM mode, and ion transitions for each analyte were optimized during method development. Samples were analyzed in pools, with each pool containing three to four analytes.

# MOLECULE, efflux ratio at 120 min, 1 µM
records = [
    ("Nc1c2c(nc3ccccc13)CCCC2", 0.81),
    ("CC(C)(C)NC(=O)[C@@H]1CN(Cc2cccnc2)CCN1C[C@@H](O)C[C@@H](Cc1ccccc1)C(=O)N[C@H]1c2ccccc2C[C@H]1O", 0.93),
    ("Cc1ncc2n1-c1ccc(Cl)cc1C(c1ccccc1F)=NC2", 0.43),
    ("Cc1ccc(NC(=O)c2ccc(CN3CCN(C)CC3)cc2)cc1Nc1nccc(-c2cccnc2)n1", 0.99),
    ("OC[C@@H](O)[C@@H](O)[C@H](O)[C@H](O)CO", 0.96),
    ("Cc1cc(=O)n(-c2ccccc2)n1C [Antipyrine]", 0.65),
    ("N=C(N)NC(=O)Cc1c(Cl)cccc1Cl", 0.63),
    ("CN(C)CCCN1c2ccccc2CCc2ccccc21", 0.62),
    ("NC(N)=Nc1nc(CSCCC(N)=NS(N)(=O)=O)cs1", 1.05),
    ("Cc1ccc(-c2ncc(Cl)cc2-c2ccc(S(C)(=O)=O)cc2)cn1", 0.9),
    ("COc1ccc(CCN2CCC(Nc3nc4ccccc4n3Cc3ccc(F)cc3)CC2)cc1", 1.43),
    ("CNC(=C[N+](=O)[O-])NCCSCc1ccc(CN(C)C)o1", 0.91),
    ("Cc1cccc(C)c1OCC(C)N (stereo not drawn)", 0.36),
    ("COc1ccc2c(c1)c(CC(=O)O)c(C)n2C(=O)c1ccc(Cl)cc1", 0.37),
    ("Cc1nc2n(c(=O)c1CCN1CCC(c3noc4cc(F)ccc34)CC1)CCCC2O (stereo not drawn)", 0.79),
    ("CC(C)(C)c1ccc(C(O)CCCN2CCC(C(O)(c3ccccc3)c3ccccc3)CC2)cc1 (stereo not drawn)", 0.88),
    ("O=C(CCCN1CCC(O)(c2ccc(Cl)cc2)CC1)c1ccc(F)cc1", 0.74),
    ("COc1cc([C@@H]2c3cc4c(cc3[C@@H](O[C@@H]3O[C@@H]5CO[C@@H](C)O[C@H]5[C@H](O)[C@H]3O)[C@H]3COC(=O)[C@H]23)OCO4)cc(OC)c1O [Etoposide]", 0.67),
]
